# test.method.notes: protein stability index of a GFP-peptide fusion (GPS, HEK-293T) (PSI 1-6); higher = more stable;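 further: 24-mer peptide tiles fused after GFP, lentivirally expressed, FACS-sorted into six equal bins by GFP/DsRed ratio, decoded by Illumina sequencing, PSI is the read-weighted mean bin number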
# settings: treatment: MLN4924 1 uM, 8 h; c terminus: a fixed tail appended
Record form. Attribute: protein stability index. Fill in for each entry.
One number for each entry.

monomer_sequence="CMGAMSLFLPCLLCYPPAKGCLKL [SPRY1]" observed_result=3.04
monomer_sequence="FTFLRPLSVQQPTALALEPDAIRS [PCDHGC5]" observed_result=3.03

# context switch: different sequence, same protein stability index
input: Give the measured protein stability index for YSQGRLSEAEEALYLIAKRNRKLK [SLC22A15]
output: 3
